Below, each entry is listed with its recorded diameter of the inhibition zone (DIZ).
# System: Aspergillus niger
# assay procedure: Antifungal activity against Aspergillus niger assessed as growth inhibition at 0.5% after 48 to 72 hr by agar disk diffusion method
# Assay type: functional

| item smiles | scale unit | diameter of the inhibition zone (DIZ) |
| --- | --- | --- |
| O=C1C(SCCOc2ccccc2)=C(SCCOc2ccccc2)C(=O)c2ccccc21 | mm | 0 |
| O=C1C(SCc2ccc(Cl)cc2)=C(N2CCN(c3ccccc3F)CC2)C(=O)c2ccccc21 | mm | 0 |
| CCOC1=C(Sc2ccc(O)cc2)C(=O)c2ccccc2C1=O | mm | 0 |
| O=C1C(Sc2ccc(O)cc2)=C(Sc2ccc(O)cc2)C(=O)c2ccccc21 | mm | 8 |
| COC(=O)CCSC1=C(Cl)C(=O)c2ccccc2C1=O | mm | 10.4 |
